measured.target: purified catalytic domain of recombinant human TACE (rhTACEc) (Homo sapiens, UniProt P78536, N452Q/S266A)
Construct: Residue 215 to 477 with two mutation (S266A and N452Q) and a 6×His tail; 6xHis (C); made in house; host or cells: baculovirus/Hi5 insect cells
Sequence (P78536 215-477 S266A/N452Q): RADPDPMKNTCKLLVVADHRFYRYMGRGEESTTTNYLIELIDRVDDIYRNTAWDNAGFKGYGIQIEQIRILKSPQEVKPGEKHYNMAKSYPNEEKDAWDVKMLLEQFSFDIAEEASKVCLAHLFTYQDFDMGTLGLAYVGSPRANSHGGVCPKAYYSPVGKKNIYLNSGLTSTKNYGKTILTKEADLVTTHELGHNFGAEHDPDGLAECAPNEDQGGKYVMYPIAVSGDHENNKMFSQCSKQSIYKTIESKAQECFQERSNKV
test.protocol: TACE kinetic assay: cleavage of internally quenched peptide substrate SPDL-3, fluorescence
Format: biochemical
assay.conditions: TACE inhibitory activity, class symbols; read-out: Ki
measurement.name: Ki

Before answering, review these 2 worked examples.
compound	value.observed
CCNc1nnc([C@H]2c3ccccc3CN2C(=O)[C@H](O)[C@@H](O)C(=O)N[C@H](C)c2ccc(-n3cccn3)cc2)o1 (stereo in doubt) [Compound 2527]	< 20 nM
C[C@@H](NC(=O)[C@H](O)[C@@H](O)C(=O)N1C2CCC1c1cncnc1C2)c1ccc(-n2cccn2)cc1 (stereo partly drawn) [Compound 2093]	> 1000 nM

API: the following record is the query input.
Indicate the recorded Ki value for this compound: O=C(NC[C@H]1CC[C@H](n2c(C(F)(F)F)nc3ccccc32)CC1)[C@H](O)[C@@H](O)C(=O)N1CCC[C@@H]1c1ccccc1 [Compound 2351]
< 20 nM
